Data provenance: ChEMBL document CHEMBL5316295

System: Caulobacter vibrioides
method.summary: Inhibition of Caulobacter vibrioides CcrM using 5'-CGA TTC AAA AAG TCC CAA G-3' and 3'-GCT AAG TTT TTC AGG GTT C-5' as substrate and SAM as cosubstrate at 10 uM incubated for 5 mins
Activity calls are given as the source filed them. No cut-off for these calls is given here.
Outcomes: 1 = active, 0 = inactive

structure.string: Nc1ncnc2c1ncn2[C@@H]1O[C@H](C[C@@H](N)CC[C@H](N)C(=O)O)[C@@H](O)[C@H]1O
assigned.category: 1
//
structure.string: OC[C@H]1O[C@@H](n2cnc3c(NCCCc4ccc(O)cc4)ncnc32)[C@H](O)[C@@H]1O
assigned.category: 0
//
structure.string: CC(C)(C)OC(=O)N1CCC(CCNc2ncnc3c2ncn3[C@@H]2O[C@H](CO)[C@@H](O)[C@H]2O)CC1
assigned.category: 0
//
structure.string: CC(C)(C)OC(=O)N1CCC(CCCNc2ncnc3c2ncn3[C@@H]2O[C@H](CO)[C@@H](O)[C@H]2O)CC1
assigned.category: 0

====

method.summary: Inhibition of Clostridioides difficile-specific DNA adenine methyltransferase PDB 7RFK using 5'-CGA TTC AAA AAG TCC CAA G-3' and 3'-GCT AAG TTT TTC AGG GTT C-5' as substrate and SAM as cosubstrate preincubated for 5 mins followed by substrate and cosubstrate addition and measured after 3 mins by MTase-Glo assay
pIC50: −log10 of the molar value.

structure.string: Nc1ncnc2c1ncn2[C@@H]1O[C@H](C[C@@H](N)CC[C@H](N)C(=O)O)[C@@H](O)[C@H]1O
pIC50: 4.62

====

assay.target: Histone-lysine N-methyltransferase EHMT2 (Homo sapiens) (UniProt Q96KQ7)
Sequence (Q96KQ7 whole entry, the tested form may be a part): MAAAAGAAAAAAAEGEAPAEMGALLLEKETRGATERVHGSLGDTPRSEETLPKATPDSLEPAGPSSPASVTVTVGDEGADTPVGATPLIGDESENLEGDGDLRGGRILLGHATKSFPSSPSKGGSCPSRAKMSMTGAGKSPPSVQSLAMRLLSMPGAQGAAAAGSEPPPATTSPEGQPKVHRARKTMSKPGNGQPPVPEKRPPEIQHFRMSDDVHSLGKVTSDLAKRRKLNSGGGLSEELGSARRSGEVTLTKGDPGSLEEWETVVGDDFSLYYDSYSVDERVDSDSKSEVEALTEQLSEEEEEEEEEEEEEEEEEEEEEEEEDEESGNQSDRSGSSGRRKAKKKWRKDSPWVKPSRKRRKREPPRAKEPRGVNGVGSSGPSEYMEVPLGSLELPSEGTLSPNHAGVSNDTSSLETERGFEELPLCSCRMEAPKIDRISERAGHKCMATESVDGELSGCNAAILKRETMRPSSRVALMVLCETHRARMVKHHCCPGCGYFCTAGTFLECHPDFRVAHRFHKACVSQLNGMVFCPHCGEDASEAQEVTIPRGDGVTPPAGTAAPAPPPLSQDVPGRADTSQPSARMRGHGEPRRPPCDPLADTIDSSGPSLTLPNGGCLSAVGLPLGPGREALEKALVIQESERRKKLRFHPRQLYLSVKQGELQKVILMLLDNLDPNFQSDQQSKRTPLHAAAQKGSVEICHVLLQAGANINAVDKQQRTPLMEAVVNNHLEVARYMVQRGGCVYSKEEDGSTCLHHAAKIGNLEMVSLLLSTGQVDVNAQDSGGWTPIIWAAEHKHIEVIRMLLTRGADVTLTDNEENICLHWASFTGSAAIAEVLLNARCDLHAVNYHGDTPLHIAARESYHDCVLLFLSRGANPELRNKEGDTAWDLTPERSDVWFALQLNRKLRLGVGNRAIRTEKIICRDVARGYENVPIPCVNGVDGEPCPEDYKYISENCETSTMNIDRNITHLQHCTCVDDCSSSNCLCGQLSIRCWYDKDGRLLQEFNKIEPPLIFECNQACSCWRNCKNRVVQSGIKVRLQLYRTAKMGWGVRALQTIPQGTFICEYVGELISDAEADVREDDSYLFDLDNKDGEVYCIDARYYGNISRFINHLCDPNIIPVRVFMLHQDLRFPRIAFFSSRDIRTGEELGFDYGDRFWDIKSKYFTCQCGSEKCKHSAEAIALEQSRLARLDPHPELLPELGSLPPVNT
method.summary: Inhibition of human G9a (913 to 1193 residues) expressed in Escherichia coli BL21 (DE3)-gold cells using histone H3 (1 to 21 residues) as substrate and 3H-SAM as cosubstrate at 10 uM pretreated with compound for 20 mins in presence of histone H3 (1 to 21 residues) followed by cosubstrate addition and measured after 1 hr
run.conditions: time 80.0 min
Activity calls are given as the source filed them. The rule behind the calls is not given here.
Classes used: active, inactive

structure.string: Nc1ncnc2c1ncn2[C@@H]1O[C@H](CSCC[C@H](N)C(=O)O)[C@@H](O)[C@H]1O
assay.target: Histone-lysine N-methyltransferase EHMT2 (Homo sapiens) (UniProt Q96KQ7)
assigned.category: active
--
structure.string: OC[C@H]1O[C@@H](n2cnc3c(NCCCc4ccc(O)cc4)ncnc32)[C@H](O)[C@@H]1O
assay.target: Histone-lysine N-methyltransferase EHMT2 (Homo sapiens) (UniProt Q96KQ7)
assigned.category: inactive
--
structure.string: CC(C)(C)OC(=O)N1CCC(CCCNc2ncnc3c2ncn3[C@@H]2O[C@H](CO)[C@@H](O)[C@H]2O)CC1
assay.target: Histone-lysine N-methyltransferase EHMT2 (Homo sapiens) (UniProt Q96KQ7)
assigned.category: inactive
--
structure.string: CC(C)(C)OC(=O)N1CCC(CCNc2ncnc3c2ncn3[C@@H]2O[C@H](CO)[C@@H](O)[C@H]2O)CC1
assay.target: Histone-lysine N-methyltransferase EHMT2 (Homo sapiens) (UniProt Q96KQ7)
assigned.category: inactive

====

assay.target: DNA adenine methylase (Escherichia coli K-12)
Sequence (whole entry): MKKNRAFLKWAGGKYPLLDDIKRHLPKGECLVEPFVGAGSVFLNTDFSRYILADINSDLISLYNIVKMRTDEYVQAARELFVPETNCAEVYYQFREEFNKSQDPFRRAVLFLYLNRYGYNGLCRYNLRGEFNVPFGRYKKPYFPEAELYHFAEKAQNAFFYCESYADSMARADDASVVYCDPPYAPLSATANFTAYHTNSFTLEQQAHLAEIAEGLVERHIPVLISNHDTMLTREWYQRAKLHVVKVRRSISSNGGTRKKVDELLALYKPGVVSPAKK
method.summary: Inhibition of Escherichia coli Dam using 5'-CCG CGG ATC CTG CT-3' and 3'-GGC GCC TAG GAC GA-5' as substrate and SAM as cosubstrate at 10 uM incubated for 5 mins
Calls of active or inactive are those of the source. No cut-off for these calls is given here.
Outcome codes: 1 (yes) for active, 0 (no) for inactive

structure.string: CC(C)(C)OC(=O)N1CCC(CCNc2ncnc3c2ncn3[C@@H]2O[C@H](CO)[C@@H](O)[C@H]2O)CC1
assigned.category: 0 (no)

structure.string: CC(C)(C)OC(=O)N1CCC(CCCNc2ncnc3c2ncn3[C@@H]2O[C@H](CO)[C@@H](O)[C@H]2O)CC1
assigned.category: 0 (no)

structure.string: Nc1ncnc2c1ncn2[C@@H]1O[C@H](C[C@@H](N)CC[C@H](N)C(=O)O)[C@@H](O)[C@H]1O
assigned.category: 1 (yes)

structure.string: OC[C@H]1O[C@@H](n2cnc3c(NCCCc4ccc(O)cc4)ncnc32)[C@H](O)[C@@H]1O
assigned.category: 0 (no)

====

method.summary: Inhibition of Clostridioides difficile-specific DNA adenine methyltransferase PDB 7RFM using 5'-CGA TTC AAA AAG TCC CAA G-3' and 3'-GCT AAG TTT TTC AGG GTT C-5' as substrate and SAM as cosubstrate preincubated for 5 mins followed by substrate and cosubstrate addition and measured after 3 mins by MTase-Glo assay
pIC50: −log10 of the molar value.
measured.parameter: pIC50

structure.string: CC(C)N(CCCNC(=O)Nc1ccc(C(C)(C)C)cc1)C[C@H]1O[C@@H](n2ccc3c(N)ncnc32)[C@H](O)[C@@H]1O
value.reported: 4.37

====

Each record here notes measured Kd.
method.summary: Binding affinity to Clostridioides difficile-specific DNA adenine methyltransferase by MicroCal PEAQ-ITC instrument analysis

structure.string: Nc1ccc(CCNc2ncnc3c2ncn3[C@@H]2O[C@H](CO)[C@@H](O)[C@H]2O)cc1
Kd (nM): 18000
//
structure.string: OC[C@H]1O[C@@H](n2cnc3c(NCc4ccccc4)ncnc32)[C@H](O)[C@@H]1O
Kd (nM): 13000
//
structure.string: OC[C@H]1O[C@@H](n2cnc3c(NCCCc4ccccc4)ncnc32)[C@H](O)[C@@H]1O
Kd (nM): 500
//
structure.string: Nc1ccc(CCCNc2ncnc3c2ncn3[C@@H]2O[C@H](CO)[C@@H](O)[C@H]2O)cc1
Kd (nM): 1500
//
structure.string: CC(C)(C)OC(=O)N1CCC(CNc2ncnc3c2ncn3[C@@H]2O[C@H](CO)[C@@H](O)[C@H]2O)CC1
Kd (nM): 1100
//
structure.string: OC[C@H]1O[C@@H](n2cnc3c(N[C@H]4CCc5ccccc54)ncnc32)[C@H](O)[C@@H]1O
Kd (nM): 49000
//
structure.string: OC[C@H]1O[C@@H](n2cnc3c(NCc4ccc(O)cc4)ncnc32)[C@H](O)[C@@H]1O
Kd (nM): 5300
//
structure.string: CC(C)(C)OC(=O)N1CCC(CCCNc2ncnc3c2ncn3[C@@H]2O[C@H](CO)[C@@H](O)[C@H]2O)CC1
Kd (nM): 140
//
structure.string: CC(C)(C)OC(=O)N1CCC(CCNc2ncnc3c2ncn3[C@@H]2O[C@H](CO)[C@@H](O)[C@H]2O)CC1
Kd (nM): 140
//
structure.string: OC[C@H]1O[C@@H](n2cnc3c(NCCCCc4ccccc4)ncnc32)[C@H](O)[C@@H]1O
Kd (nM): 1600
//
structure.string: OC[C@H]1O[C@@H](n2cnc3c(NCCCCCc4ccccc4)ncnc32)[C@H](O)[C@@H]1O
Kd (nM): 1300
//
structure.string: OC[C@H]1O[C@@H](n2cnc3c(NCCc4ccccc4)ncnc32)[C@H](O)[C@@H]1O
Kd (nM): 2900
//
structure.string: OC[C@H]1O[C@@H](n2cnc3c(NCCCc4ccc(O)cc4)ncnc32)[C@H](O)[C@@H]1O
Kd (nM): 230
//
structure.string: Nc1ccc(CNc2ncnc3c2ncn3[C@@H]2O[C@H](CO)[C@@H](O)[C@H]2O)cc1
Kd (nM): 14000
//
structure.string: CSC[C@H]1O[C@@H](n2cnc3c(N)ncnc32)[C@H](O)[C@@H]1O
Kd (nM): 11000

====

method.summary: Inhibition of Clostridioides difficile-specific DNA adenine methyltransferase PDB 7RFL using 5'-CGA TTC AAA AAG TCC CAA G-3' and 3'-GCT AAG TTT TTC AGG GTT C-5' as substrate and SAM as cosubstrate preincubated for 5 mins followed by substrate and cosubstrate addition and measured after 3 mins by MTase-Glo assay

structure.string: CC(C)N(CCCNC(=O)Nc1ccc(C(C)(C)C)cc1)C[C@H]1O[C@@H](n2cc(Br)c3c(N)ncnc32)[C@H](O)[C@@H]1O
value.unit: µM
IC50: 4.7

====

method.summary: Binding affinity to Clostridioides difficile-specific DNA adenine methyltransferase PDB 7RFL by MicroCal PEAQ ITC analysis
pKd: −log10 of the molar value.

structure.string: CC(C)N(CCCNC(=O)Nc1ccc(C(C)(C)C)cc1)C[C@H]1O[C@@H](n2cc(Br)c3c(N)ncnc32)[C@H](O)[C@@H]1O
pKd: 5.20
